// provenance: patent US10221163B2

Target: VIM-1 (Pseudomonas aeruginosa (strain ATCC 15692 / DSM 22644 / CIP 104116 / JCM 14847 / LMG 12228 / 1C / PRS 101 / PAO1), UniProt A0A0F7KYQ8)
Assay: biochemical
Settings: VIM-1 IC50, fluorescence assay, CCF2-FA substrate, 30 pM enzyme, 2 hours at 25° C.
pIC50: −log10 of the molar value.

- compound: "CN(C)C(=O)CNS(=O)(=O)c1ccc(-c2cccc3sc(N)nc23)c(-c2nnn[nH]2)c1S(N)(=O)=O"
  pIC50: 9.78
- compound: "NC[C@H](CO)NS(=O)(=O)c1ccc(-c2cccc3[nH]nnc23)c(-c2nn[nH]n2)c1S(N)(=O)=O"
  pIC50: 9.47
- compound: "Cn1c(N)nc2c(-c3ccc(S(=O)(=O)N4CCNCC4)c(S(N)(=O)=O)c3-c3nn[nH]n3)cccc21"
  pIC50: 8.90
- compound: "NC[C@H](O)CNS(=O)(=O)c1ccc(-c2ccc(N)nc2)c(-c2nn[nH]n2)c1S(N)(=O)=O"
  pIC50: 9.70
- compound: "NC[C@H](N)CNS(=O)(=O)c1ccc(-c2cccc3[nH]c(N)nc23)c(-c2nn[nH]n2)c1S(N)(=O)=O"
  pIC50: 9.68
- compound: "Cn1c(N)nc2c(-c3ccc(S(=O)(=O)NC[C@@H](O)CN)c(S(N)(=O)=O)c3-c3nn[nH]n3)cccc21"
  pIC50: 9.75
- compound: "NCCNS(=O)(=O)c1ccc(-c2cccc3[nH]c([C@@H]4C[C@@H](O)CN4)nc23)c(-c2nn[nH]n2)c1S(N)(=O)=O"
  pIC50: 9.63
- compound: "Nc1nc2c(-c3ccc(S(=O)(=O)NC4CCNCC4)c(S(N)(=O)=O)c3-c3nnn[nH]3)cccc2s1"
  pIC50: 9.53
- compound: "CC(CN)NS(=O)(=O)c1ccc(-c2cccc3sc(N)nc23)c(-c2nnn[nH]2)c1S(N)(=O)=O.O=CO (centres unmarked) [Example 116, formate]"
  pIC50: 9.58
- compound: "Nc1nc2c(-c3ccc(S(=O)(=O)NCC4(CO)CC4)c(S(N)(=O)=O)c3-c3nnn[nH]3)cccc2s1"
  pIC50: 9.70
- compound: "NC[C@H](CO)NS(=O)(=O)c1ccc(-c2ccnc(N)c2)c(-c2nn[nH]n2)c1S(N)(=O)=O"
  pIC50: 8.73
- compound: "NC[C@H](CO)NS(=O)(=O)c1ccc(-c2cccc3sc(N)nc23)c(-c2nnn[nH]2)c1S(N)(=O)=O"
  pIC50: 9.48
- compound: "Nc1nc2c(-c3ccc(S(=O)(=O)N[C@H]4CO[C@H]5[C@@H]4OC[C@H]5N)c(S(N)(=O)=O)c3-c3nnn[nH]3)cccc2s1.O=C(O)C(F)(F)F [Example 103, 2,2,2-trifluoroacetate]"
  pIC50: 9.71
- compound: "CC1(CN)CN(S(=O)(=O)c2ccc(-c3cccc4sc(N)nc34)c(-c3nnn[nH]3)c2S(N)(=O)=O)C1.O=C(O)C(F)(F)F [Example 101, 2,2,2-trifluoroacetate]"
  pIC50: 9.13
- compound: "C[C@H](CN)NS(=O)(=O)c1ccc(-c2cccc3c2nc(N)n3C)c(-c2nn[nH]n2)c1S(N)(=O)=O"
  pIC50: 9.97
- compound: "NC[C@@H]1CCN(S(=O)(=O)c2ccc(-c3cccc4sc(N)nc34)c(-c3nnn[nH]3)c2S(N)(=O)=O)C1.O=C(O)C(F)(F)F [Example 94, 2,2,2-trifluoroacetate]"
  pIC50: 9.01
- compound: "Nc1nc2c(-c3ccc(S(=O)(=O)NCCC4CNC4)c(S(N)(=O)=O)c3-c3nnn[nH]3)cccc2s1"
  pIC50: 9.51
- compound: "NCc1nc2c(-c3ccc(S(=O)(=O)N[C@H](CN)CO)c(S(N)(=O)=O)c3-c3nn[nH]n3)cccc2s1"
  pIC50: 9.23
- compound: "NC1CCC(c2ccc(S(N)(=O)=O)c(S(N)(=O)=O)c2-c2nnn[nH]2)CC1 (centres unmarked)"
  pIC50: 8.93
- compound: "NCc1nc2c(-c3ccc(S(=O)(=O)NC[C@H](O)CN)c(S(N)(=O)=O)c3-c3nn[nH]n3)cccc2[nH]1"
  pIC50: 9.81
- compound: "NCc1nc2c(-c3ccc(S(=O)(=O)NC[C@H](O)CN)c(S(N)(=O)=O)c3-c3nn[nH]n3)cccc2s1"
  pIC50: 10.17
- compound: "CN(C1CCCNC1)S(=O)(=O)c1ccc(-c2cccc3sc(N)nc23)c(-c2nnn[nH]2)c1S(N)(=O)=O (centres unmarked)"
  pIC50: 8.24
- compound: "NC[C@@H](O)CNS(=O)(=O)c1ccc(-c2ccc(N)nc2)c(-c2nn[nH]n2)c1S(N)(=O)=O"
  pIC50: 9.77
- compound: "NCCN1CC[C@H](NS(=O)(=O)c2ccc(-c3cccc4[nH]c(N)nc34)c(-c3nn[nH]n3)c2S(N)(=O)=O)C1"
  pIC50: 9.82
- compound: "C[C@@H](CN)NS(=O)(=O)c1ccc(-c2cccc3sc(N)nc23)c(-c2nn[nH]n2)c1S(N)(=O)=O"
  pIC50: 9.13
- compound: "NC[C@H]1CCN(S(=O)(=O)c2ccc(-c3cccc4sc(N)nc34)c(-c3nnn[nH]3)c2S(N)(=O)=O)C1"
  pIC50: 8.94
